molecular target: BaF3-ETV6-NTRK3 (Homo sapiens); construct: fused on or other part: P41212 (Transcription factor ETV6); assay: Cell proliferation inhibition (CCK-8), BaF3-ETV6-NTRK3 stable strain; settings: BaF3-ETV6-NTRK3, 72 hours
Sequence (Q16288 whole entry, the tested form may be a part): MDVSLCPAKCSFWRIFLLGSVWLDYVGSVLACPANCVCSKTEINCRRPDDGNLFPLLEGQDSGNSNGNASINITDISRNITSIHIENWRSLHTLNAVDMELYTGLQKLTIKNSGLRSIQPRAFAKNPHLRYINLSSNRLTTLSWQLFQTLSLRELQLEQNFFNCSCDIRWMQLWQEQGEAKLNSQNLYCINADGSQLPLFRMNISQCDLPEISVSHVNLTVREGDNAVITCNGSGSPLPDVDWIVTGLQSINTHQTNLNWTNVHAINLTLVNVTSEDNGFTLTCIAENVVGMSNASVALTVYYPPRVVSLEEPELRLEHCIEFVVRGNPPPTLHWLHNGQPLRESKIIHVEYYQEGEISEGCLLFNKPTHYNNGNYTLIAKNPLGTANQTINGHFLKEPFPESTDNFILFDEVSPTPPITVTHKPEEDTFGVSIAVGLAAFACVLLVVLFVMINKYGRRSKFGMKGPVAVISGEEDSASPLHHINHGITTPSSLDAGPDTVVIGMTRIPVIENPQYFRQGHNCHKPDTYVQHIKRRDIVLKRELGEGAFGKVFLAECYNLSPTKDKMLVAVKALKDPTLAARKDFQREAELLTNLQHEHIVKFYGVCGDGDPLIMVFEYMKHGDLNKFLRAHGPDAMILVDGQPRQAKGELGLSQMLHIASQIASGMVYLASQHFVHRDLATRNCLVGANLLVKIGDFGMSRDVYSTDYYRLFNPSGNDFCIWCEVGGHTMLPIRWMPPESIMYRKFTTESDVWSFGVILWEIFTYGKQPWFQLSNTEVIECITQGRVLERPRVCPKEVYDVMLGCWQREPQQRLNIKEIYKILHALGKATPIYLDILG
pIC50: −log10 of the molar value.
Reported pIC50 values are given for each entry in this list.
READOUT_NAME: pIC50

molecule=Fc1ccccc1Cc1ccc2[nH]nc(/C=C/c3ccccn3)c2c1 rel== obs_value=6.14
molecule=Fc1cc(F)cc(Sc2ccc3[nH]nc(/C=C/c4ccccn4)c3c2)c1 rel== obs_value=6.80
molecule=O=S(=O)(Nc1ccc2[nH]nc(/C=C/c3cnn(C(F)F)c3)c2c1)c1cc(F)cc(F)c1 rel== obs_value=6.95
molecule=CCn1cc(/C=C/c2n[nH]c3ccc(N[C@H](C)c4cc(F)cc(F)c4)cc23)cn1 rel== obs_value=8.37
molecule=Fc1cc(F)cc(Cc2ccc3[nH]nc(/C=C/c4ccccc4C(F)(F)F)c3c2)c1 rel== obs_value=7.59
molecule=C[C@@H](Nc1ccc2[nH]nc(/C=C/c3cnccn3)c2c1)c1cc(F)cc(F)c1 rel== obs_value=7.96
molecule=Fc1ccc(F)c([C@H]2CCCN2c2ccc3[nH]nc(/C=C/c4ccccn4)c3c2)c1 rel== obs_value=6.78
molecule="Clc1cccc(Cc2ccc3[nH]nc(/C=C/c4ccccn4)c3c2)c1 [DYX-134X]" rel== obs_value=6.07
molecule="FC(F)(F)c1cccc(Cc2ccc3[nH]nc(C#Cc4ccccn4)c3c2)c1 [DYX-138Q]" rel=< obs_value=5.00
molecule="COc1cccc(Cc2ccc3[nH]nc(/C=C/c4ccccn4)c3c2)c1 [DYX-135X]" rel== obs_value=5.62
molecule=CN(c1cc(F)cc(F)c1)c1ccc2[nH]nc(C#Cc3ccccn3)c2c1 rel== obs_value=5.51
molecule=Fc1cc(F)cc(Cc2ccc3[nH]nc(/C=C/c4cccs4)c3c2)c1 rel== obs_value=6.62
molecule=CC(C)(C)NC(=O)/C=C/c1n[nH]c2ccc(NCc3cc(F)cc(F)c3)cc12 rel== obs_value=6.44
molecule=Cc1cc(F)cc(CNc2ccc3[nH]nc(/C=C/c4ccccn4)c3c2)c1 rel== obs_value=6.95
molecule=CNC(=O)/C=C/c1n[nH]c2ccc(NCc3cc(F)cc(F)c3)cc12 rel== obs_value=7.47
molecule=Fc1cc(F)cc(COc2ccc3[nH]nc(C#Cc4ccccn4)c3c2)c1 rel== obs_value=5.66
molecule=Fc1cc(F)cc(Cc2ccc3[nH]nc(/C=C/c4ccncc4)c3c2)c1 rel== obs_value=6.96
molecule=O=S(=O)(c1cc(F)cc(F)c1)c1ccc2[nH]nc(/C=C/c3ccccn3)c2n1 rel== obs_value=6.92
